- Procedure Text: Pharmacokinetic assay in rat
- Run Conditions: male SD rats, i.g. 20 mg/kg in 10% PEG400, parent 3 measured
Assay Endpoint: Tmax
Express your answer as a number followed by its unit.

Examples from the recorded data:
Molecule	Tmax
Cc1c(CO)c(=O)oc2c3c(ccc12)OC(C)(C)[C@H](OC(=O)C12CCC(C)(C(=O)O1)C2(C)C)[C@@H]3OC(=O)C12CCC(C)(C(=O)O1)C2(C)C (stereo partly shown) [Compound 3, 3-hydroxymethyl-4-methyl-DCK]	34.8 min
Cc1c(COC(=O)CCC(=O)O)c(=O)oc2c3c(ccc12)OC(C)(C)[C@H](OC(=O)[C@@]12CC[C@@](C)(C(=O)O1)C2(C)C)[C@@H]3OC(=O)[C@@]12CC[C@@](C)(C(=O)O1)C2(C)C (relative stereo) [Compound 6]	22.8 min
Cc1c(COC(=O)CN)c(=O)oc2c3c(ccc12)OC(C)(C)[C@H](OC(=O)[C@@]12CCC(C)(C(=O)O1)C2(C)C)[C@@H]3OC(=O)[C@@]12CCC(C)(C(=O)O1)C2(C)C.Cl (relative stereo)	45 min

Continue with the molecule presented below.
Quote Tmax reported for Cc1c(COC(=O)CCC(=O)O)c(=O)oc2c3c(ccc12)OC(C)(C)[C@H](OC(=O)[C@@]12CC[C@@](C)(C(=O)O1)C2(C)C)[C@@H]3OC(=O)[C@@]12CC[C@@](C)(C(=O)O1)C2(C)C (relative stereo) [Compound 8] please.
30 min
